assay: Percent oral bioavailability was measured in mouse after administration of compound 20 mg/kg perorally; type: ADME, organism-based; settings: in vivo
MEASUREMENT TYPE: bioavailability (%)
Answers are plain numbers, in %.

What value of measured bioavailability is listed for CCCC[C@@H](C[C@@H](CCc1ccc(-c2ccc(F)cc2)cc1)C(=O)N[C@H](C(=O)NC)C(C)(C)C)C(=O)O ? 78

----------
biological target: 72 kDa type IV collagenase (Homo sapiens, UniProt P08253)
Sequence (P08253 whole entry): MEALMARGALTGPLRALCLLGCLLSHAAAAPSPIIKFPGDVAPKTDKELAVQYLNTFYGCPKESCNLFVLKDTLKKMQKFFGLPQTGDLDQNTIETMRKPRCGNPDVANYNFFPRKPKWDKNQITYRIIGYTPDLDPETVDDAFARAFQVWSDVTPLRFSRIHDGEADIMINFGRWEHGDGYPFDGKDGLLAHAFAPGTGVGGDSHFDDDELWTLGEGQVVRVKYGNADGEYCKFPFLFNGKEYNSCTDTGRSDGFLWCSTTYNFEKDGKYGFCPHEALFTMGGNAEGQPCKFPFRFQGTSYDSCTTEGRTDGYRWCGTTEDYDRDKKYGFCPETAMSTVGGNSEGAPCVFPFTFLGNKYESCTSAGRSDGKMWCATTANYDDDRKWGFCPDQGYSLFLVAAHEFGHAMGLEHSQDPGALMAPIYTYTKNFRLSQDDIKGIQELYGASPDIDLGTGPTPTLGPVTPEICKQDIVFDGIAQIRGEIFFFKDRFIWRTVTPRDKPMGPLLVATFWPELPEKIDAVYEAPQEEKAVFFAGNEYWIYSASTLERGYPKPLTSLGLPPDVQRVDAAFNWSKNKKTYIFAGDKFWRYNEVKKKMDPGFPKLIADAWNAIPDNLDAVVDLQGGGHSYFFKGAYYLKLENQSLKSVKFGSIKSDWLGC
MEASUREMENT TYPE: Ki (nM)
Give bare numbers, in nM.

[
  {
    "SMILES REPRESENTATION": "CCCC[C@@H](C[C@@H](CCc1ccc(-c2ccc(F)c(Cl)c2)cc1)C(=O)N[C@H](C(=O)NC)C(C)(C)C)C(=O)O",
    "MEASURED VALUE": 80
  },
  {
    "SMILES REPRESENTATION": "CCCC[C@@H](C[C@@H](CCc1ccc(-c2ccc(SC)cc2)cc1)C(=O)N[C@H](C(=O)NC)C(C)(C)C)C(=O)O",
    "MEASURED VALUE": 13
  },
  {
    "SMILES REPRESENTATION": "CCCC[C@@H](C[C@@H](CCc1ccc(CCC)cc1)C(=O)N[C@H](C(=O)NC)C(C)(C)C)C(=O)O",
    "MEASURED VALUE": 47
  }
]

We next turn to a different compound, shown below.
Using the record for CCCC[C@@H](C[C@@H](CCc1ccc(-c2ccc(C=O)cc2)cc1)C(=O)N[C@H](C(=O)NC)C(C)(C)C)C(=O)O , report its Ki. 16
